# Test system: southern armyworm (Prodenia eridania, (Cram.))
# Assay: Southern Armyworm Leaf Spray Test
# Format: in vivo
# Set-up: key: A: excellent control; B: partial control; C: no control
# Condition parameters: 500 parts per million, 3 days
Readout kind: pesticidal activity rating, Armyworm

Here are 5 compounds together with their reported answers.
Compound: CN(SC(Cl)(Cl)Cl)C(=O)ON=C1C[S+]([O-])CCS1 (stereo not drawn)
pesticidal activity rating, Armyworm: A
//
Compound: CN(SC(Cl)(Cl)Cl)C(=O)ON=C1SCCSC1(C)C
pesticidal activity rating, Armyworm: A
//
Compound: CCCC1SCCSC1=NOC(=O)NC (stereo not drawn) [drawing 9 --NHCH3, reference compound]
pesticidal activity rating, Armyworm: C
//
Compound: CN(SC(Cl)(Cl)Cl)C(=O)ON=C1CSCCS1
pesticidal activity rating, Armyworm: A
//
Compound: CNC(=O)ON=C1SCCSC1(C)C [drawing 7 --NHCH3, reference compound]
pesticidal activity rating, Armyworm: A

Now look at this entry.
What pesticidal activity rating, Armyworm value was documented for this compound, "CN(SC(Cl)(Cl)Cl)C(=O)ON=C1CSC(C)(C)S1" ?
C

====

# Tested on: southern armyworm (Prodenia eridania, (Cram.))
# Assay: Southern Armyworm Leaf Spray Test
# Type: in vivo
# Design: key: A: excellent control; B: partial control; C: no control
# Condition parameters: 500 parts per million, 3 days
# Method: Larvae of the southern armyworm (Prodenia eridania, (Cram.)), reared on Tendergreen bean plants at a temperature of 80°±5° F. and a relative humidity of 50±5 percent, constituted the test insects. The test compounds were formulated by diluting the stock suspension with water to give a suspension containing 500 parts of test compound per million parts of final formulation. […] Percent mortality was recorded for various concentration levels. […]
Readout kind: pesticidal activity rating, Armyworm

Here are 8 compounds together with their reported answers.
Compound: CCCC1SCCSC1=NOC(=O)N(C)SC(Cl)(Cl)Cl (stereo not drawn)
Observed value: C

Compound: CNC(=O)ON=C1CSC(C)(C)S1 [drawing 6 --NHCH3, reference compound]
Observed value: B

Compound: CC1SCCSC1=NOC(=O)N(C)SC(Cl)(Cl)Cl (stereo not drawn)
Observed value: A

Compound: CNC(=O)ON=C1CSCS1 [drawing 5 --NHCH3, reference compound]
Observed value: A

Compound: CNC(=O)ON=C1CSCCS1 [drawing 3 --NHCH3, reference compound]
Observed value: A

Compound: CNC(=O)ON=C1SCCSC1C (stereo not drawn) [drawing 11 --NHCH3, reference compound]
Observed value: A

Compound: CNC(=O)ON=C1C[S+]([O-])CCS1 (stereo not drawn) [drawing 10 --NHCH3, reference compound]
Observed value: A

Compound: CN(SC(Cl)(Cl)Cl)C(=O)ON=C1CSCS1
Observed value: A

Now look at this entry.
Lab note: need pesticidal activity rating, Armyworm for "CN(SC(F)(F)F)C(=O)ON=C1CSCCS1" on southern armyworm (Prodenia eridania, (Cram.)), anyone have it?
A

====

# System: house flies (Musca domestica, L.)
# Assay: Fly Bait Test
# Type: in vivo
# Parameters: key: A: excellent control; B: partial control; C: no control
# Condition parameters: 500 parts per million, 24 hours
# Experimental: Four to 6 day old adult house flies (Musca domestica, L.), reared according to the specifications of the Chemical Specialities Manufacturing Association (Blue Book, McNair-Dorland Co., N.Y. 1954; pages 243-244, 261) under controlled conditions of 80°±5° F. and 50±5 percent relative humidity, were the test insects. […]
Readout kind: pesticidal activity rating, Housefly

Molecule: CC1SCCSC1=NOC(=O)N(C)SC(Cl)(Cl)Cl (stereo not shown)
pesticidal activity rating, Housefly: A

Molecule: CCCC1SCCSC1=NOC(=O)NC (stereo not shown) [drawing 9 --NHCH3, reference compound]
pesticidal activity rating, Housefly: A

Molecule: CCCC1SCCSC1=NOC(=O)N(C)SC(Cl)(Cl)Cl (stereo not shown)
pesticidal activity rating, Housefly: A

Molecule: CNC(=O)ON=C1SCCSC1(C)C [drawing 7 --NHCH3, reference compound]
pesticidal activity rating, Housefly: A

Molecule: CN(SC(Cl)(Cl)Cl)C(=O)ON=C1SCCSC1(C)C
pesticidal activity rating, Housefly: B

Now look at this entry.
What pesticidal activity rating, Housefly value was documented for this molecule, CNC(=O)ON=C1CSCS1 [drawing 5 --NHCH3, reference compound] ?
A

====

# Assay: Peroral toxicity to mammals (rat)
# Format: in vivo
# Condition parameters: in vivo, po; rat, peroral, Table I; read-out: Rat P.O. LD50
Readout kind: LD50 (mg/kg)
Reply with just the number (in mg/kg).

Here are 3 molecules together with their reported answers.
Molecule: CN(SC(Cl)(Cl)Cl)C(=O)ON=C1CSCS1
Unit abbreviation: mg/kg
LD50: 75

Molecule: CNC(=O)ON=C1SCCSC1(C)C [drawing 7 --NHCH3, reference compound]
Unit abbreviation: mg/kg
LD50: 0.3

Molecule: CNC(=O)ON=C1CSCS1 [drawing 5 --NHCH3, reference compound]
Unit abbreviation: mg/kg
LD50: 13

What LD50 value was documented for this molecule, CNC(=O)ON=C1C[S+]([O-])CCS1 (stereo not drawn) [drawing 10 --NHCH3, reference compound] ?
12.3

What LD50 value was documented for this molecule, CN(SC(Cl)(Cl)Cl)C(=O)ON=C1C[S+]([O-])CCS1 (stereo not drawn) ?
28.3

What LD50 value was documented for this molecule, "CN(SC(Cl)(Cl)Cl)C(=O)ON=C1SCCSC1(C)C" ?
7.07

====

Measured LD50, listed per entry.
# Assay: Peroral toxicity to mammals (rat)
# Format: in vivo
# Condition parameters: in vivo, po; rat, peroral, Table II; read-out: Rat P.O. LD50
Reply with just the number (in mg/kg).

Molecule: CN(SC(Cl)(Cl)Cl)C(=O)ON=C1CSCCS1
Unit abbreviation: mg/kg
Observed value: 149

What LD50 value was documented for this molecule, CNC(=O)ON=C1CSCCS1 [drawing 3 --NHCH3, reference compound] ?
15

====

# System: Mexican bean beetle (Epilachna varivestis, Muls.)
# Assay: Mexican Bean Beetle Leaf Spray Test
# Format: in vivo
# Parameters: key: A: excellent control; B: partial control; C: no control
# Condition parameters: leaf spray, 500 parts per million, 3 days
Readout kind: pesticidal activity rating, Bean beetle

Compound: CC1SCCSC1=NOC(=O)N(C)SC(Cl)(Cl)Cl (stereo not drawn)
pesticidal activity rating, Bean beetle: A
--
Compound: CN(SC(Cl)(Cl)Cl)C(=O)ON=C1CSC(C)(C)S1
pesticidal activity rating, Bean beetle: A
--
Compound: CNC(=O)ON=C1SCCSC1(C)C [drawing 7 --NHCH3, reference compound]
pesticidal activity rating, Bean beetle: A
--
Compound: CCCC1SCCSC1=NOC(=O)NC (stereo not drawn) [drawing 9 --NHCH3, reference compound]
pesticidal activity rating, Bean beetle: A
--
Compound: CNC(=O)ON=C1CSCS1 [drawing 5 --NHCH3, reference compound]
pesticidal activity rating, Bean beetle: A
--
Compound: CN(SC(Cl)(Cl)Cl)C(=O)ON=C1CSCS1
pesticidal activity rating, Bean beetle: A
--
Compound: CN(SC(Cl)(Cl)Cl)C(=O)ON=C1C[S+]([O-])CCS1 (stereo not drawn)
pesticidal activity rating, Bean beetle: A
--
Compound: CN(SC(Cl)(Cl)Cl)C(=O)ON=C1SCCSC1(C)C
pesticidal activity rating, Bean beetle: A
--
Compound: CN(SC(Cl)(Cl)Cl)C(=O)ON=C1CSCCS1
pesticidal activity rating, Bean beetle: A
--
Compound: CNC(=O)ON=C1C[S+]([O-])CCS1 (stereo not drawn) [drawing 10 --NHCH3, reference compound]
pesticidal activity rating, Bean beetle: A

What pesticidal activity rating, Bean beetle value was documented for this compound, CNC(=O)ON=C1CSC(C)(C)S1 [drawing 6 --NHCH3, reference compound] ?
A

What pesticidal activity rating, Bean beetle value was documented for this compound, CCCC1SCCSC1=NOC(=O)N(C)SC(Cl)(Cl)Cl (stereo not drawn) ?
A

What pesticidal activity rating, Bean beetle value was documented for this compound, CNC(=O)ON=C1CSCCS1 [drawing 3 --NHCH3, reference compound] ?
A

What pesticidal activity rating, Bean beetle value was documented for this compound, CNC(=O)ON=C1SCCSC1C (stereo not drawn) [drawing 11 --NHCH3, reference compound] ?
A

What pesticidal activity rating, Bean beetle value was documented for this compound, "CN(SC(F)(F)F)C(=O)ON=C1CSCCS1" ?
A

meta.source: patent US4111955A
